Recorded values, source ChEMBL document CHEMBL2331323.

Below is a list of entries, each paired with its recorded Ratio IC50 value.
Organism: Ovis aries
Assay: Ratio of compound IC50 to isoCA-4 IC50 for sheep brain tubulin polymerization by fluorimeter analysis
Would you mind answering with just the numeric figure?

Consider the reported Ratio IC50 for these compounds:
compound: COc1ccc2c(c1O)OCCCC2c1cc(OC)c(OC)c(OC)c1 (stereo not given)
measurement_kind: Ratio IC50
reading: 2
//
compound: COc1ccc2c(c1N)OCCC=C2c1cc(OC)c(OC)c(OC)c1
measurement_kind: Ratio IC50
reading: 2

Enquiry: What value of Ratio IC50 has been recorded for this entry: COc1ccc2c(c1O)OCCC=C2c1cc(OC)c(OC)c(OC)c1
Return: 2

Enquiry: What value of Ratio IC50 has been recorded for this entry: COc1cc(OC)cc(C2=CCCOc3c2ccc(OC)c3O)c1
Return: 2

Enquiry: What value of Ratio IC50 has been recorded for this entry: COc1ccc2c(c1)OCCC=C2c1cc(OC)c(OC)c(OC)c1
Return: 2

---

System: K562
Assay: Growth inhibition of human K562 cells after 72 hrs by Victor microtiter plate fluorimeter analysis
Type: functional
Details: K562, 72 h
measurement_kind: GI50 (nM)
// note: answer is a bare numeric in nM

Consider the reported GI50 for these compounds:
compound: COc1ccc2c(c1O)OCCCC2c1cc(OC)c(OC)c(OC)c1 (stereo unspecified)
units_of_measure: nM
GI50: 50
//
compound: COc1ccc2c(c1)OCCC=C2c1cc(OC)c(OC)c(OC)c1
units_of_measure: nM
GI50: 100
//
compound: COc1ccc2c(c1N)OCCC=C2c1cc(OC)c(OC)c(OC)c1
units_of_measure: nM
GI50: 40
//
compound: C=C(c1ccc(OC)c(O)c1)c1cc(OC)c(OC)c(OC)c1
units_of_measure: nM
GI50: 5
//
compound: COc1cc(OC)cc(C2=CCCOc3c2ccc(OC)c3O)c1
units_of_measure: nM
GI50: 30

Here is another compound to look at.
Enquiry: What value of GI50 has been recorded for this entry: COc1ccc2c(c1O)OCCC=C2c1cc(OC)c(OC)c(OC)c1
Return: 8

---

Below is a list of entries, each paired with its recorded GI50 value.
Assay: Growth inhibition of human H1299 cells after 72 hrs by Victor microtiter plate fluorimeter analysis
Assay type: functional
Conditions: NCI-H1299, 72 h
// note: answer is a bare numeric in nM

molecule: C=C(c1ccc(OC)c(O)c1)c1cc(OC)c(OC)c(OC)c1
GI50 / nM: 3

molecule: COc1ccc2c(c1O)OCCC=C2c1cc(OC)c(OC)c(OC)c1
GI50 / nM: 4.5

molecule: COc1cc(OC)cc(C2=CCCOc3c2ccc(OC)c3O)c1
GI50 / nM: 32

molecule: COc1ccc2c(c1O)OCCCC2c1cc(OC)c(OC)c(OC)c1 (stereo unspecified)
GI50 / nM: 7

molecule: COc1ccc2c(c1N)OCCC=C2c1cc(OC)c(OC)c(OC)c1
GI50 / nM: 30

Here is another molecule to look at.
Enquiry: What value of GI50 has been recorded for this entry: COc1ccc2c(c1)OCCC=C2c1cc(OC)c(OC)c(OC)c1
Return: 180
